- System: giant foxtail
- Protocol summary: Test B pre/postemergence giant foxtail
- Format: in vivo, Setaria faberii
- Experimental conditions: Postemergence, Rate 125 g/ha; scale 0 to 10, 0 is no effect, 10 is complete control
Attribute measured: Plant response rating, Giant foxtail
Enter a number only.

Known Plant response rating, Giant foxtail results, listed for orientation:
- Compound: "CC(C)N(C(=O)n1oc(=O)n([C@@H]2C[C@H]2C)c1=O)c1ccc(F)cc1 (relative stereo) [Compound 392]"
  Test target: "giant foxtail"
  Result: 9
- Compound: "CC(C)Cn1c(=O)on(C(=O)N(c2ccc(F)cc2F)C(C)C)c1=O [Compound 394]"
  Test target: "giant foxtail"
  Result: 7
- Compound: "CC(C)N(C(=O)n1oc(=O)n(CCCC(F)(F)F)c1=O)c1ccc(F)cc1 [Compound 398]"
  Test target: "giant foxtail"
  Result: 8

Param readout= Plant response rating, Giant foxtail; system= giant foxtail; entry= CCC(CC)n1c(=O)on(C(=O)N(c2ccc(F)cc2F)C(C)C)c1=O [Compound 353] ; returns value. 3

Again, but for CC(C)N(C(=O)n1oc(=O)[nH]c1=O)c1ccc(F)cc1F [Compound 391] 0

Numbers sourced from patent US6737383B1.
